- tgt: GPR73 (prokineticin 1 receptor) (Homo sapiens, UniProt Q8TCW9)
- Construct: expressed in transfected cells; host or cells: HEK 293
- Sequence (Q8TCW9 whole entry, species assumed): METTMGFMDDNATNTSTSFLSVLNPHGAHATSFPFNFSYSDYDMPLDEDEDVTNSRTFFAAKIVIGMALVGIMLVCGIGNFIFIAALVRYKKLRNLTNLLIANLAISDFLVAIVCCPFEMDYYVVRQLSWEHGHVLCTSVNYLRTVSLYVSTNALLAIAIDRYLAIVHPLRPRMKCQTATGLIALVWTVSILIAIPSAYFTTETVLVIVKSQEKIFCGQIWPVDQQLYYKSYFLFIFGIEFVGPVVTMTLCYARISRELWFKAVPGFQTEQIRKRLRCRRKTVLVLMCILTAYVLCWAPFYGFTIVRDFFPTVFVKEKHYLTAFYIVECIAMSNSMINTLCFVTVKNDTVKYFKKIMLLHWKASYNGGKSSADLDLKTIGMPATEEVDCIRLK
- assay method text: PK1 functional assay: Ca2+ mobilization screening for PK1 antagonists on the FLIPR
- Assay type: cell-based
- conditions: 10 μM compound; HEK 293 GPR73 cells; multiple values = multiple testing; 10 µM
measure name: Ca^2+ Mobilization % Inh @ 10 μM (%)

                            molecule_smiles                                       tgt                      measure_name  result
0  COc1ccc(Cn2c(=O)nc(NCc3c(C)cc(C)nc3N)n(Cc3cccc4[nH]ccc34)c2=O)cc1  GPR73 (prokineticin 1 receptor) (Homo sapiens, UniProt Q8TCW9)  Ca^2+ Mobilization % Inh @ 10 μM     100
1  COc1ccc(Cn2c(=O)nc(NCc3cccnc3N)n(Cc3ccc(O)cc3)c2=O)cc1  GPR73 (prokineticin 1 receptor) (Homo sapiens, UniProt Q8TCW9)  Ca^2+ Mobilization % Inh @ 10 μM     102
2  COc1ccc(Cn2c(NCc3cccc(C(F)(F)F)n3)nc(=O)n(Cc3ccc(OC)cc3)c2=O)cc1  GPR73 (prokineticin 1 receptor) (Homo sapiens, UniProt Q8TCW9)  Ca^2+ Mobilization % Inh @ 10 μM      51
3  COc1ccc(Cn2c(=O)nc(NCc3cccnc3N)n(Cc3cccc4[nH]ccc34)c2=O)cc1  GPR73 (prokineticin 1 receptor) (Homo sapiens, UniProt Q8TCW9)  Ca^2+ Mobilization % Inh @ 10 μM      73
